System: A549 NSCLC
assay text: NCI tumour cell line growth inhibition, 48 h
# maps each entry to its TGI

As a guide, the following entries are already answered.
CC(C)(C)OC(=O)NC1CCCC1C(O)(C1=CCCC1)C1=CCCC1 (stereo not drawn) : > 100 µM
CCCCCNC(=O)[C@@H]1CCCN2C(=O)CC[C@H](NC(=O)[C@H](Cc3ccc(OP(=O)(O)O)cc3)NC(C)=O)C(=O)N12 : > 25 µM
CC(/C=N/N(C)C1=NCCCCN1)=N/N(C)C1=NCCCCN1 : > 100 µM
Cn1ccc2c(NCCN)c3c(c(NCCN)c21)C(=O)c1ccccc1C3=O : 12.1 µM
COC(=O)NC/C=C\c1nc(CC/C=C\C(=O)OC2CC3CC(=O)O[C@H](/C=C/CC(C)C)C[C@H]4CCC(C)C(C[C@H](OC)CC(C2)O3)O4)co1 (stereo partly drawn) : > 100 µM
CC1(CCc2ccccc2)CC1(Br)Br (stereo not drawn) : > 100 µM
COc1ccc(C[C@H]2NC(=O)/C=C/C[C@@H]([C@H](C)[C@H]3O[C@@H]3c3ccccc3)OC(=O)[C@H](CC(C)C)OC(=O)[C@H](C)CNC2=O)cc1 : > 0.0001 µM

Now examine the next entry.
Ask: // lookup TGI | system=A549 NSCLC | key= O=S(=O)(O)c1ccc2c(N=Nc3ccccc3)c(O)c(S(=O)(=O)O)cc2c1
Result: > 100 µM

----------
Overview of reported TGI across a group of molecules:
Test system: KM20L2 colon
assay text: NCI tumour cell line growth inhibition, 48 h

Known results for molecules:
O=C(CNC(=O)OCc1ccccc1)Oc1ccccc1 : > 100 µM
Cc1nc2c(=O)[nH]c(=O)n(C)c2[nH]c1=O : > 100 µM
C1CNCCNCCNCCN1 : > 100 µM
COc1cc2c(c(OC)c1OC)-c1ccc(SC)c(=O)cc1[C@@H](NC(=O)c1ccc(OC(C)=O)cc1)CC2 : 0.0358 µM
CC(C)=CC(=O)Oc1ccc([N+](=O)[O-])cc1 : > 100 µM
Cn1nc(-c2ccccc2)c(N=[N+]=[N-])cc1=O : > 100 µM
COC1/C=C\C=C(/C)C(=O)Nc2cc3nc4ccc(Br)cc4oc-3c(c2=O)CC(C)CC(OC)C(O)C(C)/C=C(\C)C1OC(N)=O (centres undefined) : 3.65 µM
CCOc1cc2c(cnc3c4cc(OC)c(OC)cc4ccc23)cc1OC : > 100 µM

Please turn your attention to the following entry.
Ask: Quick one: TGI of NCCCN(CCCN)CCCNCc1c2ccccc2c(CNCCCN(CCCN)CCCN)c2ccccc12 ?
Result: 47.8 µM

----------
Recorded TGI for the following molecules
Tested on: HCT-15 colon
assay text: NCI tumour cell line growth inhibition, 48 h

The following molecules have reported results that may help.
COc1cc2c(cc1OC)C1=Cc3ccc(OC)c(OC)c3C(C#N)N1CC2 (stereo not drawn) : > 100 µM
CC(C)=CC(=O)Oc1ccc([N+](=O)[O-])cc1 : > 100 µM
Cc1cccc(C)c1NC(=O)CCCC(=O)CC(=O)/C=C/c1ccccc1 : > 100 µM
Nc1nc2cc(CNc3ccc(C(=O)O)cc3)ccc2nc1-c1ccccc1 : > 100 µM
O=C1c2n[nH]nc2C(=O)c2n[nH]nc21 : > 100 µM
CC(=O)OCSc1ncnc2c1ncn2CN1CCOCC1 : > 100 µM
CC(C)=CCC/C(=C\CC/C(=C\CCc1ccoc1)C(=O)O)C(=O)O : > 100 µM
CCCc1ccc(S(=O)(=O)N[C@H]2CC[C@H]3[C@@H]4CCc5cc(O)ccc5[C@H]4CC[C@]23C)cc1 : 6.45 µM
N#CCc1ccc(C(C#N)/C(CCCC(=O)Nc2cccc([N+](=O)[O-])c2)=N\NC(=O)NN)cc1 (stereo not drawn) : > 100 µM
N#CC(c1nc2ccccc2s1)c1nc(Cl)ncc1Br (stereo not drawn) : > 100 µM

Ask: Consider the molecule shown here: O=C1CSC(c2cccc(Cl)c2)N1c1c(O)c(Cl)cc(Br)c1Cl (stereo not drawn) What is its recorded TGI?
Result: 28.3 µM

Ask: I have this molecule here, Cc1ccc(S(=O)(=O)NC(=O)NC(Cc2ccccc2)C(=O)O)cc1 (stereo not drawn) , and I need its recorded TGI.
Result: > 100 µM

Ask: Dear colleague, I am looking for the recorded TGI of the following molecule: CC(=O)N1CC(C)(C)c2c1cc(C)c(O)c2C
Result: > 100 µM

Ask: Which TGI is reported for this molecule? CC1Cc2c(N)nc(NN)nc2NC1=O (stereo not drawn)
Result: > 100 µM

Ask: What does the record list as TGI for Cn1nc(-c2ccccc2)c(N=[N+]=[N-])cc1=O ?
Result: > 100 µM

Ask: For the molecule O=C(Nc1ccc(-n2cc(-c3ccncc3)c(-c3ccc(Cl)c(O)c3)n2)cc1)Nc1cc(C(F)(F)F)cc(C(F)(F)F)c1 , what TGI is on record?
Result: 4.3 µM

Ask: What value of TGI has been recorded for this entry: Cc1c(C)c2c(c(N)c1C#N)C(=O)N(OS(=O)(=O)c1ccccc1)C2=O
Result: 46 µM

Ask: Reported TGI, molecule CC1(C)NCCC[C@]2(C)[C@H]3C=CC4=C5C[C@](C)(CO)CC[C@]5(C)CC[C@@]4(C)[C@]3(C)CC[C@@H]12 : ____
Result: 16.4 µM

Ask: # TGI lookup, item Cc1cc(C)c(O)c(CNCCCCCCNCc2cc(C)cc(C)c2O)c1
Result: 3.05 µM

Ask: TGI for N#Cc1ccc(/C=N/NC(=O)CSCC(=O)N/N=C/c2ccc(C#N)cc2)cc1 ?
Result: > 100 µM

Ask: # query: TGI of entry Fc1ccc(Oc2nccc(-c3c(-c4ccc(F)cc4)ncn3C3CCNCC3)n2)cc1
Result: > 25 µM

Ask: Fill blank: measured TGI of the molecule CC(=O)OC(CC(C)C)P1(=O)N(CC(C)(C)C)[C@@H]2CCCC[C@H]2N1CC(C)(C)C (stereo partly drawn) is ____.
Result: 23.4 µM

Ask: Which TGI reading was recorded for the molecule CCOC(=O)Cc1csc(/N=C2\NC(=O)/C(=C3\C(=O)N(C)c4ccccc43)S2)n1 ?
Result: > 100 µM

----------
Listed compounds paired with reported GI50
Test system: MDA-MB-435
assay text: NCI tumour cell line growth inhibition, 48 h

Use these answered entries as a reference point.
CC(=O)C1CC2(c3ccc(C)cc3)C(c3ccc(C)cc3)=C(c3ccc(C)cc3)C1(c1ccc(C)cc1)S2=O (stereo not given) : > 100 µM
CCN(CC)CCOc1ccc(Nc2ncc3cc(-c4ccc(O)cc4)c(=O)n(C)c3n2)cc1 : 0.983 µM
C=C1C(=O)O[C@@H]2C1C[C@@H](O)/C(C)=C/C/C=C(\C)CCC[C@H](C)[C@H]2OC(C)=O (stereo not given in full) : 24.4 µM
O=C(NC1CC1)c1ccc(-c2nc3ccc4[nH]ncc4c3c3c2CCCC3)cc1 : 1.38 µM

Ask: For the record NCCCC(=O)Nc1ccncc1 , what value of GI50 is listed for MDA-MB-435?
Result: > 100 µM

----------
Test system: 786-0 renal
assay text: NCI tumour cell line growth inhibition, 48 h
parameter measured: TGI (µM)
Please state the figure in µM; there is no need to write the unit.

CCn1nc(-c2ccccc2)c2c1N(C)c1ccccc1-n1c(-c3ccccc3)nnc1-2 : 30.6
Cc1cccc(/C=N/NC(=S)N2CCCCCC2)n1 : 0.775
COc1ccc2nc(-c3ccccc3)cc(Nc3ccc(C(C)=O)cc3)c2c1 : 3.54

Ask: For CCOC(=O)Cc1csc(/N=C2\NC(=O)/C(=C3\C(=O)N(C)c4ccccc43)S2)n1 , what is its reported TGI?
Result: 72.5

Ask: Value lookup for TGI; key = Cc1ccc(S(=O)(=O)N(CC(O)c2ccccc2)c2ccccc2F)cc1 (stereo not given)
Result: 34.7

Ask: Fill in the blank: the reported TGI of CCN(CC)CCOc1ccc(Nc2ncc3cc(-c4ccc(O)cc4)c(=O)n(C)c3n2)cc1 is ____.
Result: 2.65

Ask: Please look up its TGI: COC(=O)c1ccc(CCC2=CC(=O)C(Br)=CC2=O)cc1
Result: 35.2

Ask: I have this compound here, CCOC(=O)/C(=C\c1ccc(OCc2ccccc2)c(OC)c1)C(=O)c1ccccc1 , and I need its recorded TGI.
Result: 37.7

Ask: Report TGI for CCN1C(=O)N(CC)C2C1NN=c1s/c(=C3\C(=O)N(CC(C)C)c4ccccc43)c(=O)n12 (stereo not given) please.
Result: 26.7

----------
Tested on: HS 578T breast
assay text: NCI tumour cell line growth inhibition, 48 h
Property: GI50; scope: individual compounds

Example entries and their recorded answers appear below.
O=C(Nc1ccc(-n2cc(-c3ccncc3)c(-c3ccc(O)c(Cl)c3)n2)cc1)c1cc(Cl)cc(Cl)c1 : 0.939 µM
CCOC(=O)CCCn1c(SC)nc2cc(-c3ccco3)[nH]c2c1=O : 25.6 µM

Ask: State the recorded GI50 for this entry: NCCCC(=O)Nc1ccncc1
Result: > 100 µM
